B1: Tyrosine-protein kinase Lck, residues 63 to 120; numbered along this chain, P06239 (parent)
chain: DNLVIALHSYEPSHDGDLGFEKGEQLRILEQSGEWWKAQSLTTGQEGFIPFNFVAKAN

Variants of: B1
assay-explanation: abundance fitness (aPCA) (normalised: wild type 0, dead -1); higher = more abundant; growth selection in yeast, the domain comes from the species named
setup-conditions: Homo sapiens
Reported values of abundance fitness for individual entries
reported-endpoint: abundance fitness

mut=W36E recorded_measurement=-0.881
mut=A57M recorded_measurement=-0.195
mut=A6M recorded_measurement=-0.637
mut=L7M recorded_measurement=-0.097
mut=V54P recorded_measurement=-0.732
mut=L18C recorded_measurement=-0.898
mut=A6P recorded_measurement=-0.897
mut=F51C recorded_measurement=0.163
mut=L7C recorded_measurement=-0.357
mut=A38C recorded_measurement=-0.4
mut=F51T recorded_measurement=-0.235
